Biological target: T1, PARD3B_1, Q8TEW8
T1 sequence (Q8TEW8 196-299, limits assumed, looked up): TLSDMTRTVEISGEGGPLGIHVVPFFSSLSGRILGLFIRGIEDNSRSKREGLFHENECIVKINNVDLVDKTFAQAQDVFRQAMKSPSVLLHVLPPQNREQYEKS
Assay: holdup assay
Parameters: key: below the threshold = too weak to quantify, mostly under pKd 3.1 to 4
Conditions: plain residues with an end cap or a label only (N-terminal biotin on a linker: ado-ado)
# key: entry, value: pKd
Readout: pKd

{"Binder": "WAKEKQHTRL [SLC17A1, Q14916]", "Readout": "pKd", "Numeric value": 4.31}
{"Binder": "SSSVNVSSNL [CXCR1, P25024]", "Readout": "pKd", "Numeric value": 3.72}
{"Binder": "EAVTVESTSL [SLC22A11, Q9NSA0]", "Readout": "pKd", "Numeric value": 4.43}
{"Binder": "FLVTEFNVML [DFNB31, Q9P202]", "Readout": "pKd", "Numeric value": 5.21}
